Assay: in vitro
Settings: PAMPA
experimental_endpoint: Papp (×10⁻⁶ cm/s)

NCCCCC(NC(=O)C1CCCN1C(=O)Cc1cccc2ccccc12)C(=O)NCCc1ccccc1 (stereo not shown) [Compound 1d] ... 0.26
NCCCCC(NC(=O)C1CCCN1C(=O)Cc1cccc2ccccc12)C(=O)NCCc1cccc(-c2ccccc2)c1 (stereo not shown) [Compound 1k] ... 1.3

P. NCCCCC(NC(=O)C1CCCN1C(=O)Cc1cccc2ccccc12)C(=O)NCc1ccccc1 (stereo not shown) [Compound 1c]
Q. NCCCCC(NC(=O)C1CCCN1C(=O)Cc1cccc2ccccc12)C(=O)NCC1CCCCC1 (stereo not shown) [Compound 1f]
Request: Hello, I am sorting some records. Could you say if P or Q has the smaller Papp value? Your answer should be the label attached to the chosen record.
Response: P
(P: 0.24 ×10⁻⁶ cm/s, Q: 0.47 ×10⁻⁶ cm/s)
